# assay.comment: in vivo
# measurement.parameters: SD, rat, iv, 1 mg/kg
result.type: AUC(0-t)
In your response, put the unit directly after the numeric value.

Solved entries:
[[record]]
molecule = "O=C(O)C1C2CCC(CC2)C1Nc1cc(-c2ccccc2)nc(-c2c[nH]c3ncc(F)cc23)n1 (racemic) [Example 4]"
result_type = "AUC(0-t)"
value_observed = "4540 ng·h/mL"

[[record]]
molecule = "O=C(O)C1C2CCC(CC2)C1Nc1cc(-c2cccc3c2oc2ccccc23)nc(-c2c[nH]c3ncc(F)cc23)n1 (racemic) [Example 18]"
result_type = "AUC(0-t)"
value_observed = "3130 ng·h/mL"

[[record]]
molecule = "O=C(O)C1C2CCC(CC2)C1Nc1cc(C2CC2)nc(-c2c[nH]c3ncc(F)cc23)n1 (racemic) [Example 68]"
result_type = "AUC(0-t)"
value_observed = "2760 ng·h/mL"


Q) Supply reported AUC(0-t) belonging to this molecule: Cn1ccc2c(NC3C4CCC(CC4)C3C(=O)O)nc(-c3c[nH]c4ncc(F)cc34)nc21 (racemic) [Example 65]
A) 5340 ng·h/mL
